Let's look at some compounds and their measured fold induction at 50 µM.
- System: E. cloacae
- experimentSummary: AK assay 384-well format, Prestwick library screening
- Format: cell-based, Enterobacter cloacae
- conditionParameters: Enterobacter cloacae, 3 h; 50 μM final drug concentration; cutoff for positive-scoring molecules 3-fold increase; read-out: AK-based Prestwick Library Screening Results, E. cloacae (fold increase in extracellular AK activity)
Where a name gives a salt, the structure may show the parent alone.
reportedMetric: fold induction at 50 µM

>>> result("Clc1ccc(C(Cn2ccnc2)OCc2csc3c(Cl)cccc23)c(Cl)c1 (stereo not shown) [Sertaconazole nitrate]")
0.4
>>> result("COc1cc2ccc(=O)oc2cc1O")
0.3
>>> result("CNCCCC1c2ccccc2C=Cc2ccccc21 [Protriptyline hydrochloride]")
1.4
>>> result("Cc1cc2cc3c(C)cc(=O)oc3c(C)c2o1")
1.3
>>> result("CC(C)(Oc1ccc(Cl)cc1)C(=O)O")
1.5
>>> result("CN1CCN(C(c2ccccc2)c2ccc(Cl)cc2)CC1 (stereo not shown) [Chlorcyclizine hydrochloride]")
1.6
>>> result("C=C1c2cccc(O)c2C(=O)C2=C(O)[C@]3(O)C(=O)C(C(N)=O)=C(O)[C@@H](N(C)C)[C@@H]3[C@@H](O)[C@H]12 [Methacycline hydrochloride]")
0.4
>>> result("Nc1ccc(S(=O)(=O)NC(=O)c2ccccc2)cc1 [Sulfabenzamide]")
1.6
>>> result("COc1ccc(-c2cc(=O)c3c(O)cc(O)cc3o2)cc1")
1.6
>>> result("C=C1C[C@]23C[C@@]1(O)CC[C@H]2[C@@]12C=C[C@H](O)[C@@](C)(C(=O)O1)[C@H]2[C@@H]3C(=O)O")
0.4
>>> result("COc1cc(C(=O)OC2CC3CCC(C2)N3C)ccc1O (stereo not shown)")
1.8
>>> result("C/C=C(/C(=C/C)c1ccc(O)cc1)c1ccc(O)cc1")
21.9
>>> result("CCN1C(=O)NC(c2ccccc2)C1=O (stereo not shown)")
1.6
>>> result("CCCCOc1ccc(OCCCN2CCOCC2)cc1 [Pramoxine hydrochloride]")
1.5
>>> result("CC(=O)c1ccc2c(c1)N(CCCN1CCC(CCO)CC1)c1ccccc1S2")
0.4
>>> result("NC(CO)C(=O)NNCc1ccc(O)c(O)c1O (stereo not shown) [Benserazide hydrochloride]")
1.8
>>> result("CC(=O)Nc1ccc(O)cc1")
1.6
>>> result("Cn1cnc2c1c(=O)[nH]c(=O)n2C")
1.4
>>> result("CC(CNC1CCCCC1)OC(=O)c1ccccc1 (stereo not shown) [Hexylcaine hydrochloride]")
1.4
>>> result("O=C(CCCCC(=O)Nc1c(I)cc(I)c(C(=O)O)c1I)Nc1c(I)cc(I)c(C(=O)O)c1I [Iodipamide]")
1.6
>>> result("NC[C@@H]1O[C@H](O[C@H]2[C@@H](O)[C@H](O[C@@H]3[C@@H](O)[C@H](N)C[C@H](N)[C@H]3O[C@H]3O[C@H](CO)[C@@H](O)[C@H](O)[C@H]3N)O[C@@H]2CO)[C@H](N)[C@@H](O)[C@@H]1O [Paromomycin sulfate]")
1.4
>>> result("CCOc1ccc2ccccc2c1C(=O)N[C@@H]1C(=O)N2[C@@H]1SC(C)(C)[C@@H]2C(=O)O [Nafcillin sodium salt monohydrate]")
1.4
>>> result("CC(C)(C)NC(=O)[C@H]1CC[C@H]2[C@@H]3CC[C@H]4NC(=O)C=C[C@]4(C)[C@H]3CC[C@]12C [Finasteride]")
1.8
>>> result("CN(C)CCCO[C@@H]1[C@H]2OC(C)(C)O[C@H]2O[C@@H]1[C@H](O)CO [Amiprilose hydrochloride]")
1.5
>>> result("CCOC(=O)O[C@]1(C(=O)COC(=O)CC)CC[C@H]2[C@@H]3CCC4=CC(=O)C=C[C@]4(C)[C@H]3[C@@H](O)C[C@@]21C [Prednicarbate]")
0.3

Data origin: patent US10004701B2
